Property: Bmal1(PASB) dTmB; scope: individual compounds
target: BMAL1 (Homo sapiens, UniProt O00327)
Sequence (O00327 338-449): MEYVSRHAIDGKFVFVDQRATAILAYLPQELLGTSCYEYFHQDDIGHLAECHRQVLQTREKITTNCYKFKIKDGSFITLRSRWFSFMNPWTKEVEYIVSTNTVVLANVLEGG
Set-up: PASB domain (residues 338–449); Protein thermal shift (PTS) fragment screen on recombinant human BMAL1(PASB), shift of melting temperature
test_settings: dTmB; binder
Report only the number, with the unit °C understood.

Form field: reported Bmal1(PASB) dTmB of CCOc1ccccc1OCC1CNCCO1 (centres unmarked)
-0.48

I would be grateful if you could share the reported Bmal1(PASB) dTmB for OCc1cc2ccccc2[nH]1 .
0.70

Suppose we examine the compound C#Cc1cccc(N)c1 ; what Bmal1(PASB) dTmB value has been reported?
-3.75

Entry Nc1nc2ccc(C(=O)c3ccccc3)cc2[nH]1 has what Bmal1(PASB) dTmB?
-1.29

Any idea what its Bmal1(PASB) dTmB is? The compound is CN1CCN(c2cc(N)ncn2)CC1
-0.17
